Listing: activity, negative = inhibition of selected compounds
run.description: Stat Signaling Pathway (AID 446);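 also: ME-180 cervical cancer cells given 40 pM IL-6 alongside compound; SIE-controlled beta-lactamase reporter measured as 460/530 nm FRET emission ratio; % is scaled to controls: 0 for no effect and ±100 for the full control effect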
protocol.conditions: ME-180 (cervical carcinoma) SIE beta-lactamase reporter, IL-6 stimulated, 5 h; at 17.2 µM (top of the series) unless noted
Results filed as inconclusive are left out.
Field format: number, assumed %, no unit text.

Solved cases below.
1) CCOC(=O)C1=C(C)OC(N)=C(C#N)C1c1cc2ccccc2nc1N1CCCCC1 (configuration not stated) ... 13.8
2) CCOC(=O)CSc1nc(-c2ccncc2)ccc1C#N ... 3.41

Next, consider the following compound.
Ask | Give its activity, negative = inhibition value. Item: COc1ccc(N2C(=O)CC(N(Cc3ccc(S(N)(=O)=O)cc3)C(C)=O)C2=O)cc1 (configuration not stated)
Reply | 2.66

====

Test system: CP297
run.description: qHTS profiling for inhibitors of Plasmodium falciparum proliferation (AID 504749); also: nearly all actives have a fitted effect of over 60% in size
protocol.conditions: P. falciparum in erythrocytes, SYBR Green DNA, 72 h; series mostly up to 28.7 µM
Method: NIH National Institute of Allergy and Infectious Diseases [NIAID] NIH Chemical Genomics Center [NCGC] […] Because mature erythrocytes lack DNA, only Plasmodium-derived DNA is detected. NCGC Assay Protocol Summary: The SYBR Green viability assay was adapted from a method described previously (Plouffe et al., 2008). […] The following morning, fluorescence intensity at 485(14) nm excitation and 535(25) nm emission wavelengths was measured on an EnVision (Perkin Elmer) plate reader. […]
Inconclusive results are not listed. Calls of active or inactive are those of the source. Calls follow the shape of the dose curve; as a rule, active = well fitted inhibition curve with a large enough effect; inconclusive = small, poorly fitted or top-dose-only effect; inactive = flat fitted curve, though single readings scatter.
Answer with one of the outcomes given here: TRUE = active, FALSE = inactive

Please review the following examples before continuing.
1) O=C1CC[C@H](C(=O)N[C@@H]2C[C@H]2c2ccccc2)N1 ... FALSE
2) CC(=O)OCC(=O)[C@@]1(O)CCC2C3CCC4=CC(=O)C=CC4(C)C3C(O)C[C@]21C (some centres undefined) ... FALSE
3) CCN(CC)C(=O)Nc1ccc(OC[C@H](O)CNC(C)(C)C)c(C(C)=O)c1 ... FALSE
4) CC(=O)O[C@]1(C(C)=O)CCC2C3CCC4=CC(=O)CCC4(C)C3(F)C(O)CC21C (some centres undefined) ... FALSE
5) CO/N=C(/C(=O)N[C@@H]1C(=O)N2C(C(=O)O)=C(CSc3nc(C)c(CC(=O)O)s3)CS[C@H]12)c1csc(N)n1 ... FALSE
6) O=C(O)Cc1sc(-c2ccc(Cl)cc2)nc1-c1ccccc1 ... FALSE

Ask | Lab log entry: COC1CC2CCC(C)[C@](O)(O2)C(=O)C(=O)N2CCCCC2C(=O)OC(C(C)CC2CCC(O)C(OC)C2)CC(=O)C(C)/C=C(/C)C(O)C(OC)C(=O)C(C)CC(C)C=CC=C/C=C\1C (some centres undefined) — outcome as called in the assay?
Reply | TRUE

Ask | Lab log entry: `Cc1cncc(C(=O)O)[n+]1[O-]` — outcome as called in the assay?
Reply | FALSE

Ask | Lab log entry: O=C(O)CC(O)CC(O)/C=C/c1c(C2CC2)nc2ccccc2c1-c1ccc(F)cc1 (centres undefined) — outcome as called in the assay?
Reply | FALSE

====

experimental.target: Cytochrome P450 3A4 (Homo sapiens) (UniProt P08684)
Sequence (P08684 whole entry, looked up): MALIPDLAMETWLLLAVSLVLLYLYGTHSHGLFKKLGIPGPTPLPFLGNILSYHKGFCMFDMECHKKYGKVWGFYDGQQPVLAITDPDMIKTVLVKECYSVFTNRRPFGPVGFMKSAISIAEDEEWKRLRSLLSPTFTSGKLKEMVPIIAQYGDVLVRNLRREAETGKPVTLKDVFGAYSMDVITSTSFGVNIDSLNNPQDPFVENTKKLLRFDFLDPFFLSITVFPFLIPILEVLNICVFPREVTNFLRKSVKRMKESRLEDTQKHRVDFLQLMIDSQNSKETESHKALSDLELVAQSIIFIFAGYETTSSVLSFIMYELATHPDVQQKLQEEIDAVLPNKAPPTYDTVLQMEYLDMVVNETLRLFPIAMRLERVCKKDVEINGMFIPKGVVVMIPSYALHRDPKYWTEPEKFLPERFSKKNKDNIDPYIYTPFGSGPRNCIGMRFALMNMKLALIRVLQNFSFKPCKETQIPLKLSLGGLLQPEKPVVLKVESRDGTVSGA
run.description: qHTS Assay for Inhibitors and Substrates of Cytochrome P450 3A4 (AID 884); also: nearly all actives have a fitted effect of over 50% in size
protocol.conditions: recombinant CYP3A4, Luciferin-PPXE luminescence; series mostly up to 57.1 µM
Inconclusive results are not listed. Active and inactive are the calls of the source. Calls follow the shape of the dose curve; as a rule, active = well fitted inhibition curve with a large enough effect; inconclusive = small, poorly fitted or top-dose-only effect; inactive = no such curve, though single readings can be large or run the other way.
Answer with one of the outcomes given here: active, inactive

Please review the following examples before continuing.
1) O=c1c(O)c(-c2ccccc2)oc2cc(O)cc(O)c12 ... active
2) c1ccc2c(c1)Cc1cc3cc4c(cc3nc1-2)OCO4 ... active
3) COC(=O)[C@@]1(Cc2ccccc2)[C@H]2c3cc(C(=O)N4CCCC4)n(Cc4ccc(S(C)(=O)=O)cc4)c3C[C@H]2CN1C(=O)c1ccccc1 ... active

Ask | Lab log entry: O=C1OC(O)C(C(Cl)Cl)=C1Cl (stereo not given) — outcome as called in the assay?
Reply | inactive

Ask | Lab log entry: `C=C(CC1([C@@H](NP(=O)(c2ccccc2)c2ccccc2)[C@H]2C[C@@H]2CCCC)CC1)c1cccc(OC)c1` — outcome as called in the assay?
Reply | active
